biological target: soluble lytic transglycosylase Cj0843 (Campylobacter jejuni)
Sequence (Q0PA47 entry or part of it): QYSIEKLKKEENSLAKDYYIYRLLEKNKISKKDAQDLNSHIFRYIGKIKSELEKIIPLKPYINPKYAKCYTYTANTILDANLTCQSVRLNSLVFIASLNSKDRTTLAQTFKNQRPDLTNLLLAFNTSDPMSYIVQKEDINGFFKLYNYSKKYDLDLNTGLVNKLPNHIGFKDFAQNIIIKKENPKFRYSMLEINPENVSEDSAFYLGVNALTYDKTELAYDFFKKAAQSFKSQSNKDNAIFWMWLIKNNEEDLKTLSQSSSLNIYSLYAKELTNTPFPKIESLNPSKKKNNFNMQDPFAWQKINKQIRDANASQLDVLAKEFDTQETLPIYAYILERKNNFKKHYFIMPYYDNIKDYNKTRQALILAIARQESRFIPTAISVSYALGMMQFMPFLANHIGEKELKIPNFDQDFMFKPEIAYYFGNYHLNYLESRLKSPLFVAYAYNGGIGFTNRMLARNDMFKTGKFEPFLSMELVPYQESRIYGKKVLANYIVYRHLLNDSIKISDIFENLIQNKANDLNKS
readout-label: Kd (µM)

{"columns": ["molecule", "readout-label", "unit-of-measure", "numeric-readout"],
 "data": [
  ["CC(=O)N[C@H]1[C@H](O[C@H]2C[C@@H](C(=O)NCCS(=O)(=O)O)N[C@@H]2CO)O[C@H](CO)[C@@H](OS(=O)(=O)O)[C@@H]1O [bulgecin A]", "Kd", "µM", 210]
]}
